# tgt: CYP2C9 (Homo sapiens)
# Sequence (P11712 whole entry): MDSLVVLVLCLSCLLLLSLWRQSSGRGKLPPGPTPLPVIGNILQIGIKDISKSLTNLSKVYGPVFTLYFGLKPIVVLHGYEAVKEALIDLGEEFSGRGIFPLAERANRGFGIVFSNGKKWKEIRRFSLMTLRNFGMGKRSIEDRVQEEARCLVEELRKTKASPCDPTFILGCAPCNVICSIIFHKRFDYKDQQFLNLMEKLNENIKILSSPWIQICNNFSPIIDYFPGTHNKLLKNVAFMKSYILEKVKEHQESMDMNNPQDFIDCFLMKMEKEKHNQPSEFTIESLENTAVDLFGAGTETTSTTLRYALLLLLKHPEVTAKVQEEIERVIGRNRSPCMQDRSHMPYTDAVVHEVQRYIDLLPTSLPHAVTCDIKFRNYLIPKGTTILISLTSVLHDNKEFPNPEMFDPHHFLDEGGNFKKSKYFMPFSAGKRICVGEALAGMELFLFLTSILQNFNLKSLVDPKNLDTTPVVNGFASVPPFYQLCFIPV
# assay-text: Inhibition of human CYP2C9 in human liver microsomes at 10 uM relative to control
# Type: ADME
metric-name: inhibition at 10 µM (%)
Just the number in %, nothing appended.

* O=C(NO)c1ccc(CN2c3ccccc3Sc3ccccc32)cc1 | 24.4

With those in mind, consider the next molecule.
Lab note: measured inhibition at 10 µM of O=C(NO)c1ccc(CN2c3ccccc3Sc3cccnc32)cc1 was 3.4
